tested on: P. aeruginosa expressing IMP-1, efflux+ (MB9798); assay type: cell-based, Pseudomonas aeruginosa; settings: ratio MITC95 PA_9798/MITC95 PA_9799
Readout type: Efflux ratio

1) NS(=O)(=O)c1c(S(=O)(=O)C2CNC2)ccc(-c2cncnc2)c1-c1nnn[nH]1.O=C(O)C(F)(F)F : 15.99
2) NCCS(=O)(=O)c1ccc(-c2cccc3c2NC(=O)C3O)c(-c2nnn[nH]2)c1S(N)(=O)=O (centres unmarked) : 4.00
3) NCCS(=O)(=O)c1ccc(-c2cnc3cccnc3c2)c(-c2nnn[nH]2)c1S(N)(=O)=O.O=C(O)C(F)(F)F : 15.99
4) NC[C@@H](N)CS(=O)(=O)c1ccc(-c2ccc(N)nc2)c(-c2nn[nH]n2)c1S(N)(=O)=O : 2.00
5) NS(=O)(=O)c1c(S(=O)(=O)C2CNC2)ccc(-c2cccnc2N2CCOCC2)c1-c1nn[nH]n1 : 32.00
6) NCCS(=O)(=O)c1ccc(-c2cnc(O)nc2)c(-c2nnn[nH]2)c1S(N)(=O)=O.O=C(O)C(F)(F)F : 15.99
7) Cn1nc(N)c2c(-c3ccc(S(=O)(=O)CCN)c(S(N)(=O)=O)c3-c3nnn[nH]3)cccc21 : 2.00
8) NS(=O)(=O)c1c(S(=O)(=O)CCO)ccc(-c2cccc3c2ccc[n+]3[O-])c1-c1nn[nH]n1 : 4.00
9) NS(=O)(=O)c1c(S(=O)(=O)C2CNC2)ccc(-c2ccc(NS(=O)(=O)C3CC3)cc2)c1-c1nn[nH]n1 : 4.00
10) CC(=O)N1CC(S(=O)(=O)c2ccc(-c3cccc4nc(N)[nH]c34)c(-c3nn[nH]n3)c2S(N)(=O)=O)C1 : 16.00
11) CC(=O)N1CCC(S(=O)(=O)c2ccc(-c3cccc4nc(N)[nH]c34)c(-c3nn[nH]n3)c2S(N)(=O)=O)CC1 : 32.00
12) Nc1nc2c(-c3ccc(S(=O)(=O)c4ccccn4)c(S(N)(=O)=O)c3-c3nnn[nH]3)cccc2s1 : 8.00
13) NCCS(=O)(=O)c1ccc(-c2cncc3ccccc23)c(-c2nnn[nH]2)c1S(N)(=O)=O.O=C(O)C(F)(F)F : 2.00
14) NS(=O)(=O)c1c(S(=O)(=O)C2CNC2)ccc(-c2cccc3[nH]c(=O)[nH]c23)c1-c1nnn[nH]1 : 1.00

* * *

target: IMP-1 (Serratia marcescens); test: biochemical; assay type: biochemical; conditions: CCF2-FA substrate, 2 hours at 25° C; read-out: IMP-1 IC50
pIC50: −log10 of the molar value.
pIC50 overview
Readout type: pIC50

1. CS(=O)(=O)c1ccc(-c2ccc(N)nc2)c(-c2nn[nH]n2)c1S(N)(=O)=O : 9.20
2. NC[C@H](N)CS(=O)(=O)c1ccc(-c2cccc3[nH]c(N)nc23)c(-c2nnn[nH]2)c1S(N)(=O)=O : 8.88
3. Nc1cncc(-c2ccc(S(=O)(=O)C3CNC3)c(S(N)(=O)=O)c2-c2nnn[nH]2)c1.O=C(O)C(F)(F)F [Example 112, 2,2,2-trifluoroacetate] : 8.06
4. NCCS(=O)(=O)c1ccc(-c2cccc3nc(C(=O)O)nn23)c(-c2nnn[nH]2)c1S(N)(=O)=O : 8.27
5. Nc1ncc(-c2ccc(S(=O)(=O)C3CNC3)c(S(N)(=O)=O)c2-c2nn[nH]n2)c2cccnc12 : 8.68
6. Cc1nc(N)ccc1-c1ccc(S(=O)(=O)CCN)c(S(N)(=O)=O)c1-c1nnn[nH]1.O=C(O)C(F)(F)F [Example 170, 2,2,2-trifluoroacetate] : 8.54
7. Cn1nnc2ccc(-c3ccc(S(=O)(=O)C4CNC4)c(S(N)(=O)=O)c3-c3nnn[nH]3)cc21.O=C(O)C(F)(F)F [Example 119, 2,2,2-trifluoroacetate] : 8.24
8. COc1ccc(Cc2cc3c(-c4ccc(S(=O)(=O)C5CNC5)c(S(N)(=O)=O)c4-c4nnn[nH]4)cccc3n2C)cc1 : 9.36
9. N=C(N)c1nc2c(-c3ccc(S(=O)(=O)CCN)c(S(N)(=O)=O)c3-c3nn[nH]n3)cccc2s1 : 9.06
10. NC(=O)c1cn2cccc(-c3ccc(S(=O)(=O)C4CNC4)c(S(N)(=O)=O)c3-c3nnn[nH]3)c2n1 : 8.84
11. NCCS(=O)(=O)c1ccc(-c2cccc(C(=O)N[C@H]3CCNC3)c2N)c(-c2nn[nH]n2)c1S(N)(=O)=O : 8.59
12. NS(=O)(=O)c1c(SC2CNC2)ccc(-c2cnc3ccccn23)c1-c1nn[nH]n1 : 7.30
13. COc1cc(-c2ccc(S(=O)(=O)CCN)c(S(N)(=O)=O)c2-c2nnn[nH]2)cnc1N.O=C(O)C(F)(F)F [Example 169, 2,2,2-trifluoroacetate] : 8.28

* * *

target: IMP-1 (Serratia marcescens, UniProt P52699); test: biochemical; assay type: biochemical; conditions: CCF2-FA substrate, 2 hours at 25° C; read-out: IMP-1 IC50
Sequence (P52699 whole entry, looked up, species assumed): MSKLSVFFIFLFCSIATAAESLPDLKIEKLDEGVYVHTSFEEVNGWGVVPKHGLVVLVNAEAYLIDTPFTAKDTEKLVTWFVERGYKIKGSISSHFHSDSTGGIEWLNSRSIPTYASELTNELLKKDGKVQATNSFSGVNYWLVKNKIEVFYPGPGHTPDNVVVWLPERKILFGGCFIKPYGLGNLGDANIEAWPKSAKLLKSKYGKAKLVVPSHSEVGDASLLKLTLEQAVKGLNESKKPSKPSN
pIC50: −log10 of the molar value.
Readout type: pIC50

1. Cc1ccc(-c2ccc(S(=O)(=O)CCN)c(S(N)(=O)=O)c2-c2nn[nH]n2)c2nc(N)sc12 : 10.07
2. Nc1nc2c(-c3ccc(S(=O)(=O)C4CNC4)c(S(N)(=O)=O)c3-c3nn[nH]n3)cccc2[nH]1 : 9.08
3. Nc1nc2cc(-c3ccc(SC4CNC4)c(S(N)(=O)=O)c3-c3nn[nH]n3)ccc2[nH]1 : 6.37
4. NCC(O)CS(=O)(=O)c1ccc(-c2cccc3sc(N)nc23)c(-c2nn[nH]n2)c1S(N)(=O)=O (centres unmarked) : 9.77
5. NCCS(=O)(=O)c1ccc(-c2ccc3oc(N)nc3c2)c(-c2nn[nH]n2)c1S(N)(=O)=O : 8.95
6. NC[C@H](CO)S(=O)(=O)c1ccc(-c2cccc3nc(N)[nH]c23)c(-c2nn[nH]n2)c1S(N)(=O)=O : 8.87
7. NCCN1CC(S(=O)(=O)c2ccc(-c3cccc4[nH]c(N)nc34)c(-c3nn[nH]n3)c2S(N)(=O)=O)C1 : 8.88
8. NC(=O)c1nc2c(-c3ccc(S(=O)(=O)C4CNC4)c(S(N)(=O)=O)c3-c3nn[nH]n3)cccc2[nH]1 : 9.13
9. Cn1ncc2cc(-c3ccc(S(=O)(=O)CCN)c(S(N)(=O)=O)c3-c3nnn[nH]3)ccc21.O=C(O)C(F)(F)F [Example 160, 2,2,2-trifluoroacetate] : 9.25
10. Nc1nc2c(-c3ccc(S(=O)(=O)[C@H]4CCNC4)c(S(N)(=O)=O)c3-c3nn[nH]n3)cccc2s1 : 9.61
11. NCCS(=O)(=O)c1ccc(-c2cccn3ccnc23)c(-c2nnn[nH]2)c1S(N)(=O)=O : 9.45
12. Nc1nnc(-c2cccc(-c3ccc(S(=O)(=O)C4CNC4)c(S(N)(=O)=O)c3-c3nnn[nH]3)c2)o1 : 8.77
13. NC(=O)CN1CC(S(=O)(=O)c2ccc(-c3cccc4[nH]c(N)nc34)c(-c3nn[nH]n3)c2S(N)(=O)=O)C1 : 8.84
14. Nc1nc2cc(C(F)(F)F)cc(-c3ccc(S(=O)(=O)C4CNC4)c(S(N)(=O)=O)c3-c3nnn[nH]3)c2[nH]1 : 8.70

* * *

Below, each entry is listed alongside its reported log10 of IC50.
biological target: NDM-1 (Klebsiella pneumoniae, UniProt C7C422); assay: biochemical; format: biochemical; details: CCF2-FA substrate, 2 hours at 25° C; read-out: NDM-1 IC50
Sequence (C7C422 whole entry, looked up, species assumed): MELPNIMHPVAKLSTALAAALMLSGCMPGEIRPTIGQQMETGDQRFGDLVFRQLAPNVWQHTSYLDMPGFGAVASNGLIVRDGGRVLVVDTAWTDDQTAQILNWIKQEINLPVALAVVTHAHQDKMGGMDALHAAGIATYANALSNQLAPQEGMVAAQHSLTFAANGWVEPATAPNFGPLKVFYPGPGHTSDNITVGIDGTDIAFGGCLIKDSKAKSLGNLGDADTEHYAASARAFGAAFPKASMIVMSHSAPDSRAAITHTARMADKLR
Readout type: log10 of IC50 (log10 of the value in nM)

1. NCCS(=O)(=O)c1ccc(-c2cccc(C(=O)N[C@@H]3CCNC3)c2N)c(-c2nn[nH]n2)c1S(N)(=O)=O [Example 377] : 0.25
2. Cc1ccc(-c2ccc(S(=O)(=O)C3CNC3)c(S(N)(=O)=O)c2-c2nn[nH]n2)c2nc(N)sc12 [Example 32] : -1.48
3. NCCS(=O)(=O)c1ccc(-c2ccccc2N)c(-c2nn[nH]n2)c1S(N)(=O)=O [Example 339] : 0.40
4. Cc1ccc(-c2ccc(S(=O)(=O)C3CNC3)c(S(N)(=O)=O)c2-c2nn[nH]n2)c2sc(N)nc12 [Example 33] : -1.62
5. NCCCS(=O)(=O)c1ccc(-c2cccc3sc(N)nc23)c(-c2nn[nH]n2)c1S(N)(=O)=O [Example 194] : -1.04
6. NS(=O)(=O)c1c(S(=O)(=O)C2CNC2)ccc(C2=CCS(=O)(=O)CC2)c1-c1nn[nH]n1 [Example 218] : 0.24
7. Cn1cnc2cc(-c3ccc(S(=O)(=O)C4CNC4)c(S(N)(=O)=O)c3-c3nnn[nH]3)cnc21.O=C(O)C(F)(F)F [Example 103, 2,2,2-trifluoroacetate] : -0.02
8. NS(=O)(=O)c1c(S(=O)(=O)C2CNC2)ccc(-c2cccc3[nH]cnc23)c1-c1nn[nH]n1 [Example 332] : -0.91
9. COC(=O)c1nc2c(-c3ccc(S(=O)(=O)C4CNC4)c(S(N)(=O)=O)c3-c3nn[nH]n3)cccc2[nH]1 [Example 252] : -1.33
10. COC(=O)c1cccc(-c2ccc(S(=O)(=O)CCN)c(S(N)(=O)=O)c2-c2nn[nH]n2)c1NCCN [Example 341] : 0.60
11. NS(=O)(=O)c1c(SC2CNC2)ccc(-c2ccc(NS(=O)(=O)C3CC3)cc2)c1-c1nn[nH]n1 [Example 243] : 0.77
12. NCCCNC(=O)c1cccc(-c2ccc(S(=O)(=O)CCN)c(S(N)(=O)=O)c2-c2nn[nH]n2)c1N [Example 375] : 0.32
13. NS(=O)(=O)c1c(S(=O)(=O)C2CCNCC2)ccc(-c2cccc3c2CNC3=O)c1-c1nn[nH]n1 [Example 318] : 0.29
14. NS(=O)(=O)c1c(S(=O)(=O)C2CNC2)ccc(-c2ccc3ncccc3c2)c1-c1nnn[nH]1.O=C(O)C(F)(F)F [Example 115, 2,2,2-trifluoroacetate] : -0.63
